Test: binders of probe aFGF10 on microarray, primary screen, stem cell growth factor project, biochemical, small-molecule microarray, fluorescence 635/667 (AID 1071);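 note: score merges 667 nm spot intensity and signal to noise from triplicate slides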
Details: higher = more signal
# composite z-score values compiled below

{"COMPOUND": "C=C[C@H](C)[C@@H](O)c1ccc(O)c2ccccc12", "RESULT": -0.749}
{"COMPOUND": "COCCCNC(=O)[C@@]1(C)c2ccccc2C(=O)N(Cc2cc(C(F)(F)F)cc(C(F)(F)F)c2)[C@H]1c1ccc(CO)cc1", "RESULT": -0.635}
{"COMPOUND": "O=C1C=CC(=O)[C@@H]2CC(COc3ccccc3)=C3[C@@H](CCc4ccccc4)OB(O)C[C@@H]3[C@H]12", "RESULT": 0.272}

Recall and state the measured composite z-score for O=C1OCCC=C[C@H]2OC34C=CCN(Cc5ccccc5)C(=O)[C@H]3N(CCCCCO)C(=O)[C@@H]4C12 (stereo partly drawn) .
-0.436

For the compound COc1ccc(CCN2C(=O)[C@@]3(Cc4ccccc42)c2ccccc2C(=O)N(Cc2ccccc2Cl)[C@H]3c2ccc(CO)cc2)cc1 , report composite z-score.
-0.249

Entry COC(=O)C[C@H]1O[C@]2(C(=O)N(Cc3ccccc3)c3ccc(NC(C)=O)cc32)[C@@H](C)[C@@H]1[Si](C)(C)c1ccc(OC)cc1 needs its composite z-score filled in; supply it.
0.489

Given CC(=O)C1=CCC(c2ccccc2)N(S(=O)(=O)c2ccc(C)cc2)C1 (stereo not drawn) , respond with its composite z-score.
0.679

Provide only the value of recorded composite z-score for O=C(OCCF)C1=CCC(c2cccc(Cl)c2)O1 (stereo not drawn)
0.193

* * *

Target: Streptavidin (Streptomyces avidinii) (UniProt P22629)
Sequence (P22629 whole entry, looked up): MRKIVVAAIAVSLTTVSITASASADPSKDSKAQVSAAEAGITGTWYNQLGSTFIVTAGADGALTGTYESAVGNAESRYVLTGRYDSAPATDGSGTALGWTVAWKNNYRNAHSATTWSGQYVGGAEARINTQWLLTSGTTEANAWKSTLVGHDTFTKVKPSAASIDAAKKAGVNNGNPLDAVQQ
Assay: streptavidin binders on small-molecule microarray, primary screen, artefact control for SMM compound annotation, biophysical, 635/667 nm fluorescence (AID 1147);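 note: signal reflects streptavidin binding to arrayed compounds as a control protein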
Conditions: streptavidin binding, higher = more signal
Decide by composite z-score: equal to or exceeding 1 means met, less means not met.

{"MOL": "COCCOC(=O)N1C(=O)[C@@]2(c3cc(C#CCNC(N)=O)ccc31)[C@H](C(=O)N1CCc3cc(OC)c(OC)cc3C1)[C@H]1C(=O)O[C@H](c3ccccc3)[C@H](c3ccccc3)N1[C@@H]2c1ccc(OCCO)cc1", "CATEGORY LABEL": "not met"}
{"MOL": "CN(C)C(=O)[C@]1(CCC(=O)OC(C)(C)C)N=C(c2ccc(OCCCO)cc2)O[C@@H]1c1ccccc1N=[N+]=[N-]", "CATEGORY LABEL": "met"}
{"MOL": "NC(=O)NCC#Cc1ccc2c(c1)[C@]1(C(=O)N2)[C@H](C(=O)N2CCCCCCC2)[C@H]2C(=O)O[C@H](c3ccccc3)[C@H](c3ccccc3)N2[C@@H]1c1ccc(OCCO)cc1", "CATEGORY LABEL": "met"}
{"MOL": "C=CC[C@]1(C(=O)N2CCOCC2)N=C(c2ccc(OCCCO)cc2)O[C@H]1c1ccccc1", "CATEGORY LABEL": "not met"}

In plain terms: is recorded composite z-score at least 1 for C=CCOC(=O)[C@@H]1[C@H]2C(=O)O[C@H](c3ccccc3)[C@H](c3ccccc3)N2[C@H](c2ccc(OCCOC(=O)[C@@H]3C[C@@H]4C(=O)NCC(=O)N4[C@@H]3c3cccc(OCCO)c3)cc2)[C@@]12C(=O)Nc1ccc(I)cc12 ?
not met

* * *

Assay: CREB reporter modulators without forskolin, primary screen, cell-based, PC12, CRE-LacZ reporter, unstimulated (AID 1145)
Details: no forskolin, luminescence, 4.5 h, higher = more signal, called active from +8 up or from −8 down
Calls of active or inactive are those of the source.
Listed next: entries and their corresponding z-score.

Some compounds with recorded z-score:
{"COMPOUND": "C=CCNC(=O)[C@H]1[C@@H]2C(=O)O[C@@H](c3ccccc3)[C@@H](c3ccccc3)N2[C@@H](c2ccc(O)cc2)[C@]12C(=O)N(C(=O)OCCOC)c1ccc(C#CCCO)cc12", "RESULT": "-0.141 (inactive)"}
{"COMPOUND": "N#Cc1ccc(NN2C(C(O)c3cccs3)C=CC3C(=O)N(c4ccccc4)C(=O)C32)cc1 (centres undefined)", "RESULT": "-0.329 (inactive)"}
{"COMPOUND": "CC(C)C(O)C1C=CC2C(=O)N(c3ccccc3)C(=O)C2N1Nc1ccc(C#N)cc1 (centres undefined)", "RESULT": "0.629 (inactive)"}

We now examine a further compound.
Provide one value: measured z-score of O=C(CS)NCCCCCCNC(=O)[C@@H]1C[C@@H]2C(=O)N3CCC[C@H]3C(=O)N2[C@@H]1c1ccc(O)cc1
-0.39 (inactive)

* * *

Target: Dihydroorotate dehydrogenase (quinone), mitochondrial (Plasmodium falciparum (isolate 3D7)) (UniProt Q08210)
Sequence (Q08210 whole entry, looked up): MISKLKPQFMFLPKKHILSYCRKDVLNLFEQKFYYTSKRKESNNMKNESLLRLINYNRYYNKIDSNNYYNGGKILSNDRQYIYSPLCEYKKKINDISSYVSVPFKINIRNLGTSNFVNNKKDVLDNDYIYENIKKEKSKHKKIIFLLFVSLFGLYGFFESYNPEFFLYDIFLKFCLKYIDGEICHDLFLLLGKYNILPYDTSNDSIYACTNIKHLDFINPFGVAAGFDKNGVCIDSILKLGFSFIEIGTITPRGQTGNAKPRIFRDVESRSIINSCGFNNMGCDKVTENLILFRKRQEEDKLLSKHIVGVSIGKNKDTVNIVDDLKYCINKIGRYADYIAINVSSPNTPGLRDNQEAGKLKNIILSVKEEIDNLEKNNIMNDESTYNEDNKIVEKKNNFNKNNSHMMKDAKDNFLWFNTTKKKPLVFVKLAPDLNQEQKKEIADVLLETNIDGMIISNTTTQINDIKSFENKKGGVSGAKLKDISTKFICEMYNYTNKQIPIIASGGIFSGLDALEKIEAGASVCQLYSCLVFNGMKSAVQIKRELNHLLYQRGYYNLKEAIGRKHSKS
Assay: PfDHODH enzyme inhibitors, primary screen, biochemical, C-terminal His tag, absorbance 600 nm (AID 1175);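 note: recombinant parasite enzyme with a five histidine tag at its C terminus; test concentration not given here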
Conditions: DCIP absorbance 600 nm, called active from +8 up or from −8 down
Active and inactive are the calls of the source.
Thanks in advance; please answer with one of these: active, inactive

Solved cases below.
{"COMPOUND": "O=C1c2ccccc2[C@@]2(Cc3ccccc3N(Cc3ccccc3)C2=O)[C@H](c2ccc(CO)cc2)N1C1CCCCC1", "CATEGORY LABEL": "active"}
{"COMPOUND": "Cc1ccccc1C(O)C1C=CC2C(=O)N(C)C(=O)C2N1N1CCCCC1 (stereo not drawn)", "CATEGORY LABEL": "inactive"}

Test call for this compound, please: O=C1C2C=CC(C(O)c3ccc(-c4ccccc4)s3)N(n3cnnc3)C2C(=O)N1Cc1ccccc1 (stereo not drawn)
inactive

Dear all, I need the recorded test outcome for COCCOC(=O)N1C(=O)[C@@]2(c3cc(C#CCNC(N)=O)ccc31)[C@H](c1ccc(O)cc1)N1[C@H](c3ccccc3)[C@H](c3ccccc3)OC(=O)[C@H]1[C@@H]2C(=O)NC[C@H](O)c1ccccc1 , thank you.
inactive

GET /call?item= O=C(NCc1ccccc1)[C@]1(CCS(=O)(=O)c2ccccc2)N=C(c2ccc(OCCCO)cc2)O[C@@H]1c1ccccc1 returns the recorded outcome of this test.
inactive

Query: recorded result category for COCC(=C=CC[C@H](O)c1ccc(OCCO)cc1)C[C@H](O)c1cc(Cl)cc(Cl)c1O in this test
inactive

Check the results log: what was the call for CCOC(=O)[C@H]1C[C@H]2O[C@@]23C[C@H]1C(=O)N1CCCC1[C@@H]3O[Si](C)(C)C(C)(C)C (stereo partly drawn) ?
inactive

Per the assay record, what outcome was assigned to C=C(C(=O)CC[C@H](OC(C)=O)c1ccc(OCCO)cc1)C(C)C ?
active

* * *

Biological target: Torsin-1A (Homo sapiens)
Assay: small-molecule binders of mutant TOR1A in lysate, primary screen, cell lysate, small-molecule microarray, COS7 lysate, 635/667 nm fluorescence (AID 1150);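 note: score pools 667 nm emission and signal to noise measuring lysate protein binding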
Conditions: COS7 hTOR1A mutant lysate, 635 nm fluorescence, higher = more signal
OBSERVATION TYPE: composite z-score
Output: the number by itself.

{"MOLECULE": "Cc1ccc(S[C@]2(C(=O)NCC(C)C)CC(=O)N(Cc3ccccc3Cl)[C@@H]2c2ccc(CO)cc2)cc1", "READOUT NUMBER": 0.961}

Enter measured composite z-score, system Torsin-1A (Homo sapiens), for the molecule shown: O=C1C=CC(=O)[C@@H]2CC(COc3ccccc3)=C3[C@@H](CCc4ccccc4)OB(O)C[C@@H]3[C@H]12
-0.0222

Report value: composite z-score, system: Torsin-1A (Homo sapiens), molecule: NCCCCCNC(=O)[C@H]1C[C@H]2C(=O)NCC(=O)N2[C@H]1c1cccc(OCCO)c1
0.727

# assay system Torsin-1A (Homo sapiens): give composite z-score of CC(C)C(=C=CC[C@@H](O)c1ccccc1OCCO)C[C@@H](O)c1ccccn1
-0.303

* * *

Reported values of composite z-score for individual entries
Target: Follistatin-related protein 3 (Homo sapiens)
Assay: FSTL3 binders on small-molecule microarrays, primary screen, biochemical, small-molecule microarray, 635 nm fluorescence (AID 1105);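 note: score merges emission near 667 nm and signal to noise per printed spot across three slides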
Settings: FSTL3 binding, higher = more signal
I only need the number, thanks.

Some solved entries appear below for comparison.
{"COMPOUND": "COc1ccc([Si](C)(C)[C@H]2[C@H](CCn3cc([C@H](O)c4ccccc4)nn3)O[C@@]3(C(=O)N(Cc4cccc(N5CCC5=O)c4)c4ccccc43)[C@@H]2C)cc1", "READOUT NUMBER": -0.108}
{"COMPOUND": "O=C1C2C=CC(C(O)c3ccc(-c4ccccc4)s3)N(n3cnnc3)C2C(=O)N1Cc1ccccc1 (configuration not stated)", "READOUT NUMBER": -0.435}
{"COMPOUND": "COC(=O)c1c(CC[C@@H](CO)NC(=O)N[C@@H](Cc2ccccc2)Cn2cc(C3(O)CCCCC3)nn2)oc(C(C)=O)c1C(=O)OC", "READOUT NUMBER": 0.873}

Please indicate composite z-score recorded for CCCCCCc1nc(CCCc2cc3c(c(CCCCCC)n2)[Si](C(C)C)(C(C)C)OC3)cc2c1[Si](C(C)C)(C(C)C)OC2
-0.176

Give recorded composite z-score. [N-]=[N+]=NCc1ccccc1[C@H]1OC(c2ccc(OCCCO)cc2)=N[C@@]1(CCS(=O)(=O)c1ccccc1)C(=O)N1CCOCC1
1.13

Complete the entry with composite z-score for C=C(COC)C(=O)CC[C@@H](OC(=O)c1cccnc1)c1ccc(CO)o1
0.916

Provide one value: measured composite z-score of CC(C)CNC(=O)[C@@]1(c2ccc([N+](=O)[O-])cc2)CC(=O)N(CC23CC4CC(CC(C4)C2)C3)[C@@H]1c1ccc(CO)cc1
0.58

Please report the measured composite z-score for O=C1O[C@H](c2ccccc2)[C@H](c2ccccc2)N2[C@H]1[C@@H](C(=O)Nc1nc3ccccc3s1)[C@]1(C(=O)Nc3ccccc31)[C@H]2c1ccc(O)cc1
1.31

Fill in composite z-score for record O=C1C2C=CC(C(O)c3ccc(F)cc3)N(Nc3ccccc3)C2C(=O)N1c1ccccc1 (configuration not stated)
-0.216

Entry COCCOC(=O)N1C(=O)[C@@]2(c3cc(C#CCC(C(=O)OC)C(=O)OC)ccc31)[C@H](C(=O)N1CCN(c3ncccn3)CC1)[C@H]1C(=O)O[C@H](c3ccccc3)[C@H](c3ccccc3)N1[C@@H]2c1ccc(OCCO)cc1 needs its composite z-score filled in; supply it.
0.626

Give recorded composite z-score. COC(=O)[C@@]1(Cc2ccc(F)cc2)[C@H]2c3cc(C(=O)N4CCCC4)n(Cc4cccc5ccccc45)c3C[C@H]2CN1C(=O)c1ccccc1
0.286

Given COc1ccc(C#Cc2ccc3c(c2)[C@]2(C(=O)N3)[C@H](c3ccc(O)cc3)N3[C@H](c4ccccc4)[C@H](c4ccccc4)OC(=O)[C@H]3[C@@H]2C(=O)NC[C@H](O)c2ccccc2)cc1 , respond with its composite z-score.
0.801

Fill in reported composite z-score for this entry: CC(C)NC(=O)[C@@H]1c2ccccc2C(=O)N(Cc2ccccc2Cl)[C@H]1c1ccc(CO)cc1
-0.398

Report composite z-score for CCCC[C@@H]1C[C@H]1[C@@H](NC(=O)c1ccc(-c2ccccc2)cc1)c1ccc(-c2ccccc2)cc1
1.39

Indicate its recorded composite z-score; the compound in question is COCCOC(=O)N1C(=O)[C@@]2(c3ccccc31)[C@H](C(=O)NC[C@H](O)c1ccccc1)[C@H]1C(=O)O[C@H](c3ccccc3)[C@H](c3ccccc3)N1[C@@H]2c1ccc(OCCO)cc1
1.51

Fill in composite z-score for record CC(C)N1C(=O)C[C@@](C(=O)NCc2ccccc2)(c2ccc([N+](=O)[O-])cc2)[C@H]1c1ccc(CO)cc1
-0.17

Quick one: give measured composite z-score for COc1ccc(CCNC(=O)[C@@H]2c3ccccc3C(=O)N(Cc3ccc(OC(F)(F)F)cc3)[C@H]2c2ccc(CO)cc2)cc1
0.251

Determine its reported composite z-score: COc1ccc(CCNC(=O)[C@@]2(c3ccc([N+](=O)[O-])cc3)CC(=O)N(CC34CC5CC(CC(C5)C3)C4)[C@@H]2c2ccc(CO)cc2)cc1
1.03

Determine from records and report composite z-score for O=C1O[C@H](c2ccccc2)[C@H](c2ccccc2)N2[C@H]1[C@@H](C(=O)N1CCN(c3ncccn3)CC1)[C@]1(C(=O)Nc3ccccc31)[C@H]2c1ccc(OCCO)cc1
1.32

// fetch composite z-score given entry CN(C)C(=O)[C@@]1(CCC(=O)OC(C)(C)C)N=C(c2ccc(OCCCO)cc2)O[C@H]1c1ccccc1
-0.725

Hello, please tell me recorded composite z-score for this one: O=C1OCC=C[C@H]2OC34C=CCN(c5ccc6ccccc6c5)C(=O)[C@H]3N(CCCO)C(=O)[C@@H]4[C@@H]12 (some centres not stated)
-0.699

Supply recorded composite z-score for CN1C=C(C(=O)OCCS(C)(=O)=O)C(C(=O)OCCS(C)(=O)=O)=CC(CCCO)=CC1C1CC1 (configuration not stated) here.
0.0695

Quickly give me recorded composite z-score for O=C(CS)NCCCCCCNC(=O)[C@H]1C[C@H]2C(=O)N3CCC[C@H]3C(=O)N2[C@H]1c1cccc(OCCO)c1
0.575

Give composite z-score for the following compound: COC(=O)[C@@]1(Cc2ccccc2)[C@H]2c3cc(C(=O)N(C)C)n(Cc4c(-c5ccccc5)noc4C)c3C[C@H]2CN1C(=O)c1ccccc1
0.0261

Read the entry COC(=O)c1ccc(C23CC2(C(NP(=O)(c2ccccc2)c2ccccc2)c2ccccc2)C3)cc1 (configuration not stated) and write its reported composite z-score.
0.835

Specify reported composite z-score for the compound shown: O=C1O[C@H](c2ccccc2)[C@H](c2ccccc2)N2[C@H]1[C@@H](C(=O)NC[C@H](O)c1ccccc1)[C@]1(C(=O)Nc3ccc(C#CCCO)cc31)[C@H]2c1ccc(O)cc1
-1.17

Please supply the value of reported composite z-score for the item COC(=O)c1ccc(C(O)C2C=CC3C(=O)N(C)C(=O)C3N2NC(=O)OC(C)(C)C)o1 (configuration not stated)
0.622
